pIC50: −log10 of the molar value.
The listing below reports pIC50 for compounds tested on PI3K α (Homo sapiens (Human)).
Sequence (P42336 whole entry): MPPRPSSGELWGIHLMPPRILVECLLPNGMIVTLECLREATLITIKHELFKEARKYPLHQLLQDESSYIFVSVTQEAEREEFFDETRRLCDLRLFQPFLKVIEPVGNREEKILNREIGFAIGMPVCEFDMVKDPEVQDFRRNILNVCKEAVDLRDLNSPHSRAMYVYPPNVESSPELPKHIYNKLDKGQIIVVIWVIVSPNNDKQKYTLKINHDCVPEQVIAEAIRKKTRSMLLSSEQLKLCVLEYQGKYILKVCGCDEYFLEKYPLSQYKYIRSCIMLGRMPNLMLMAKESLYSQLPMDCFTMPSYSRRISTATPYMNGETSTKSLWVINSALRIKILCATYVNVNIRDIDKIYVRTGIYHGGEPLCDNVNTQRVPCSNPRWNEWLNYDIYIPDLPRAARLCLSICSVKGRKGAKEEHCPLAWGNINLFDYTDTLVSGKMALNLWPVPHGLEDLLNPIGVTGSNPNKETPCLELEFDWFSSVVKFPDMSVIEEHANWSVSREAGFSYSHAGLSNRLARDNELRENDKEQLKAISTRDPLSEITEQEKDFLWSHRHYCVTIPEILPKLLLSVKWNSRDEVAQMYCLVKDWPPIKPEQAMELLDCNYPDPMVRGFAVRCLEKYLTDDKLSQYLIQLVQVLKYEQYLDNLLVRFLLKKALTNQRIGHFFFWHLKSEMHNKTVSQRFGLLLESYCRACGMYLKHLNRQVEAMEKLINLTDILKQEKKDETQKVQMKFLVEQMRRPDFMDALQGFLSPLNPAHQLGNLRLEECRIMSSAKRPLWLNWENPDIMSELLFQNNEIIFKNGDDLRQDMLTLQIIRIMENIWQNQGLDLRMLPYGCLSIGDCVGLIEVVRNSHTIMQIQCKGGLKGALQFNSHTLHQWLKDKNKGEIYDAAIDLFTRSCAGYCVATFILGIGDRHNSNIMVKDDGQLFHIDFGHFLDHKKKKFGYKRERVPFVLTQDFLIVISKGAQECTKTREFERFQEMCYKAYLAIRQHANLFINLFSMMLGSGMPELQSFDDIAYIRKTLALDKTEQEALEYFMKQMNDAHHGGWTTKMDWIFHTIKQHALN
Sequence (P27986 whole entry partner): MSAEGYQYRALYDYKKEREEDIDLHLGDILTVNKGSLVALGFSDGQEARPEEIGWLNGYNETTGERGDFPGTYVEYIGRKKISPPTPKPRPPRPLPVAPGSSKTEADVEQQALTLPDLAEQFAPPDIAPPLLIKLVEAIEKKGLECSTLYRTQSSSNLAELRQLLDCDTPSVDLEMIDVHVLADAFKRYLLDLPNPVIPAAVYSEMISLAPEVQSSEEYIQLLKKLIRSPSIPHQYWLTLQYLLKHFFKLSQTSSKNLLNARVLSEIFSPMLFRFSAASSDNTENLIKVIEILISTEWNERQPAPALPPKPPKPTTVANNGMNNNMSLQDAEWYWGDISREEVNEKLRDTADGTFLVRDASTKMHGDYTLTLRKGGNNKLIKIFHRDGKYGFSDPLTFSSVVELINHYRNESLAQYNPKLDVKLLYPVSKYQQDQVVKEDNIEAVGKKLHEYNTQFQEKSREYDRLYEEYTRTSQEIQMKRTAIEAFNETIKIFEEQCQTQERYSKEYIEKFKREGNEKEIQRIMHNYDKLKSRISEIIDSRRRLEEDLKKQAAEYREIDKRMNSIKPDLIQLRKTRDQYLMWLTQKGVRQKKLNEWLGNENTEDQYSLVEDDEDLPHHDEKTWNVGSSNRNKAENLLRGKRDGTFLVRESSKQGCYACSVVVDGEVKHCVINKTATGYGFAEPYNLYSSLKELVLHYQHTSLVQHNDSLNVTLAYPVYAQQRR

A selection of reference data follows.
CS(=O)(=O)N1CCN(C(=O)c2cnc3ccc(-c4ccc5oc(N)nc5c4)cn23)CC1 :: > 7.00
CC(C)(C#N)c1ccc(Nc2ncnc3ccc(-c4ccc5oc(N)nc5c4)cc23)cc1 :: > 7.00
O=C(c1cnc2ccc(-c3cnc(Cl)c4[nH]ncc34)cn12)N1CCOCC1 :: > 6.00
NC(=O)[C@@H]1CCCN1C(=O)c1cnc2ccc(-c3ccc4oc(N)nc4c3)cn12 :: > 6.00
Nc1nc2cc(-c3ccc4ncc(C(=O)N5CCOCC5)n4c3)ccc2s1 :: > 6.00

Q) Recall the recorded pIC50 for O=C(c1cnc2ccc(-c3ccc4oc(NC5CC5)nc4c3)cn12)N1CCOCC1 with PI3K α (Homo sapiens (Human)) and state it.
A) > 5.00

Q) Subsequent entry: O=C(c1cnc2ccc(-c3cncc(NS(=O)(=O)c4ccc(F)cc4F)c3)cn12)N1CCOCC1
A) > 7.00

Q) Subsequent entry: CN1CC(n2cnc3ccc(-c4ccc5oc(N)nc5c4)cc3c2=O)C1
A) > 6.00

Q) Subsequent entry: Nc1nc2cc(-c3ccc4ncc(C(=O)N5CCNCC5)n4c3)ccc2o1
A) > 7.00

Q) Subsequent entry: CC1(C)CN(C2CN(c3cnc4ccc(-c5ccc6oc(N)nc6c5)cc4n3)C2)CCN1
A) > 7.00

Q) Subsequent entry: CC(=O)Nc1nc2ccc(-c3ccc4nccc(-c5ccncc5)c4c3)cc2s1 [Compound 2]
A) > 6.00

Q) Subsequent entry: Nc1nc2cc(-c3ccc4ncc(-c5cnn(CCO)c5)nc4c3)ccc2o1
A) > 7.00

Q) Subsequent entry: Nc1nc2cc(-c3ccc4ncc(N5CCOCC5)nc4c3)ccc2o1
A) > 7.00

Q) Subsequent entry: CN1CCN(C2CN(c3cnc4ccc(-c5ccc6oc(N)nc6c5)cc4n3)C2)CC1=O
A) > 7.00

Q) Subsequent entry: CCN1CCN(C2CN(c3cnc4ccc(-c5ccc6oc(N)nc6c5)nc4n3)C2)CC1
A) > 7.00

Q) Subsequent entry: CN1CCN(n2cnc3ccc(-c4ccc5oc(N)nc5c4)cc3c2=O)CC1
A) > 6.00

Q) Subsequent entry: C[C@H]1COCCN1C1CN(c2cnc3ccc(-c4ccc5oc(N)nc5c4)nc3n2)C1
A) > 7.00

Q) Subsequent entry: C[C@@H]1CN(C2CN(c3cnc4ccc(-c5ccc6oc(N)nc6c5)nc4c3)C2)CCN1
A) > 7.00

Q) Subsequent entry: CCN1CCN(C2CN(c3cnc4ccc(-c5ccc6oc(N)nc6c5)cc4n3)C2)CC1
A) > 7.00

Q) Subsequent entry: Nc1nc2cc(-c3ccc4ncc(C(=O)N5CC[C@H](n6cccn6)C5)n4c3)ccc2o1
A) > 7.00

Q) Subsequent entry: Cn1cc(-c2ccnc3ccc(-c4ccc5oc(N)nc5c4)cc23)cn1 [Compound 26]
A) > 7.00

Q) Subsequent entry: COc1ncc(-c2ccc3ncc(C(=O)N4CCOCC4)n3c2)cc1NS(=O)(=O)c1cccnc1
A) > 7.00

Q) Subsequent entry: Nc1nc2cc(-c3ccc4ncc(C(=O)N5CCOCC5)n4c3)cc(F)c2o1
A) > 7.00

Q) Subsequent entry: Nc1nc2cc(-c3ccc4ncc(-c5cn[nH]c5)n4c3)ccc2o1 [Compound 38]
A) > 7.00

Q) Subsequent entry: CN1CCN(c2ccc(-c3cnc4ccc(-c5ccc6oc(N)nc6c5)cn34)cn2)CC1 [Compound 42]
A) > 7.00

Q) Subsequent entry: Nc1nc2cc(-c3ccc4ncc(C(=O)N5CCOCC5)n4c3)ccc2o1
A) > 7.00

Q) Subsequent entry: C[C@H]1CN(c2nc3cc(-c4ccc5oc(N)nc5c4)ccc3nc2N)CCN1
A) > 5.00

Q) Subsequent entry: CC(C)N1CCC(n2cnc3ccc(-c4cnc(Cl)c(NS(C)(=O)=O)c4)cc3c2=O)CC1
A) > 7.00

Q) Subsequent entry: CN1CCC(n2cnc3ccc(-c4cnc(Cl)c(NS(C)(=O)=O)c4)cc3c2=O)CC1
A) > 7.00

Q) Subsequent entry: CN1CCN([C@@H]2CCN(c3cnc4ccc(-c5ccc6oc(N)nc6c5)cc4n3)C2)CC1
A) > 7.00

----------
# Experimental system: UniProt:P42345
# Sequence (P42345 1360-2549): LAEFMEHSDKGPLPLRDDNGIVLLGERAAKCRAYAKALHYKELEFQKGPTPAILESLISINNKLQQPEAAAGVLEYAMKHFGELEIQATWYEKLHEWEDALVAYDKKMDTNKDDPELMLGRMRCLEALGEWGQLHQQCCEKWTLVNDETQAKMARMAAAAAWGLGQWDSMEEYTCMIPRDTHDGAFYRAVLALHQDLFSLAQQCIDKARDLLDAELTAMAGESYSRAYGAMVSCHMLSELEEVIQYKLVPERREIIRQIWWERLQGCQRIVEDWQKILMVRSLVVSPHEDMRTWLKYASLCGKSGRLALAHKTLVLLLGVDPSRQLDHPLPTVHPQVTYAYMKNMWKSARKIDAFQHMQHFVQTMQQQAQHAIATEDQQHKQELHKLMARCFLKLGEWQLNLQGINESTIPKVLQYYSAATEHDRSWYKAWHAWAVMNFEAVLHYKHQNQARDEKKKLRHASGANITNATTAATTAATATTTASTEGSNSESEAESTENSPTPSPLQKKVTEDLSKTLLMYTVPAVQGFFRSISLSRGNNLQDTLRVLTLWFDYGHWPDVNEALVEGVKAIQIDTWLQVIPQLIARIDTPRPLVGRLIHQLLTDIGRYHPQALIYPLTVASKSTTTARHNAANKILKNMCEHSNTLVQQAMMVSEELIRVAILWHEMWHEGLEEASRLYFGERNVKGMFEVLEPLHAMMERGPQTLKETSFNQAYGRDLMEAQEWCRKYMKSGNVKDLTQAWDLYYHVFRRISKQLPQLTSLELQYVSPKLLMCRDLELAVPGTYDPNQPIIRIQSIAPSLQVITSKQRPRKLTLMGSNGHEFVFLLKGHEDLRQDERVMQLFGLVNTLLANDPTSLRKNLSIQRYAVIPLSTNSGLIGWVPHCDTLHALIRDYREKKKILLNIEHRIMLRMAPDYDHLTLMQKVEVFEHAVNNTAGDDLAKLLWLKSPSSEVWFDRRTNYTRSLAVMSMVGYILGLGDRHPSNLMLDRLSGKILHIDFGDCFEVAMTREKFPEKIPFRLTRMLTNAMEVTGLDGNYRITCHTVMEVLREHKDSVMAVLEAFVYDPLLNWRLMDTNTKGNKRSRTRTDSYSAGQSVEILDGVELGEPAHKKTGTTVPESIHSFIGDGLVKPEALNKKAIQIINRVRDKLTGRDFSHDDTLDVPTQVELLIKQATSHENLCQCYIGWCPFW
# Protocol details: mTOR inhibition assay (radiometric or LanthaScreen TR-FRET)
# Format: biochemical
Property measured: IC50

CS(=O)(=O)N1CCN(C2CCN(c3cnc4ccc(-c5ccc6oc(N)nc6c5)cc4n3)CC2)CC1 :: < 10 µM
Cn1c(=O)n(-c2ccc(C(C)(C)C#N)cc2)c2c3cc(-c4ccc5oc(N)nc5c4)ccc3ncc21 [Compound 7] :: < 0.1 µM
CCN1CCN(C2CN(c3cnc4ccc(-c5ccc6oc(N)nc6c5)nc4n3)C2)CC1 :: < 10 µM

Q) Recall the recorded IC50 for CS(=O)(=O)Nc1cc(-c2ccc3ncc(C(=O)N4CCOCC4)n3c2)cnc1Cl with UniProt:P42345 and state it.
A) < 0.1 µM

----------
# Experimental system: PI3K γ (Homo sapiens (Human), UniProt P48736)
# Sequence (P48736 whole entry, looked up): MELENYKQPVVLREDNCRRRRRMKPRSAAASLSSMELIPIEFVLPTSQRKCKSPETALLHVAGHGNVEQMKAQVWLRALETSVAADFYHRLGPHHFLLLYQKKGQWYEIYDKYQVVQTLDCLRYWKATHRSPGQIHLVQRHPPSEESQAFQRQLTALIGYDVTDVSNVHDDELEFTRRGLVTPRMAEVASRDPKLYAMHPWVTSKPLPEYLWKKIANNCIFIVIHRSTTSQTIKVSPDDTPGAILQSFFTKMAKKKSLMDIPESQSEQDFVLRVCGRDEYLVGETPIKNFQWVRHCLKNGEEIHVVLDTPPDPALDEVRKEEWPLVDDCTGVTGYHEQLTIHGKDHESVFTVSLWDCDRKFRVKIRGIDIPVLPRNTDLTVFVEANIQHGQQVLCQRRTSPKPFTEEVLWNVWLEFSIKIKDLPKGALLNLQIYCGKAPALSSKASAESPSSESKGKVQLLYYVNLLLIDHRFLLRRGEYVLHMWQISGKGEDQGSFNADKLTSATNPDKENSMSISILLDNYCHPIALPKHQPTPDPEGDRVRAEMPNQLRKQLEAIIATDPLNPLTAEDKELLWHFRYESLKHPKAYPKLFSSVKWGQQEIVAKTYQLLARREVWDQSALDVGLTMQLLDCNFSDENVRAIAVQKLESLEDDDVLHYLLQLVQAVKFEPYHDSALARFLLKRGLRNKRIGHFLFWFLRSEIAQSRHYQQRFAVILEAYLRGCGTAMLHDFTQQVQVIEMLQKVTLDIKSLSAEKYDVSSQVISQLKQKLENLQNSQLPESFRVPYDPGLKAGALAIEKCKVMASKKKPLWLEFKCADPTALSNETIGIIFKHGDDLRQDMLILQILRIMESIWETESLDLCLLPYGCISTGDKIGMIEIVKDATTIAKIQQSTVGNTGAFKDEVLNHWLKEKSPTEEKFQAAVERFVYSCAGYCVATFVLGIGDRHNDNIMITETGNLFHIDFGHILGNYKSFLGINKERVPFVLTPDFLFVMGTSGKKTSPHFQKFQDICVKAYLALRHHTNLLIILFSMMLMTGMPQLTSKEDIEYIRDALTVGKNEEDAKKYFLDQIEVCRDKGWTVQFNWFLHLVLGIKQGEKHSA
# Protocol details: PI 3-Kinase (human) HTRF assay, p110γ
# Assay type: biochemical
# Study conditions: read-out: PI3K δ IC50
Property measured: IC50

Q) Fill blank: measured IC50 of the compound Nc1nc2cc(-c3ccc4c(N)n[nH]c4c3)ccc2o1 is ____.
A) < 1 µM

Q) Subsequent entry: CC(=O)Nc1nc2ccc(-c3ccc4nc(N)oc4c3)cc2s1
A) < 0.1 µM

Q) Subsequent entry: Nc1nc2cc(-c3ccc4ncc(C(=O)N5CCOCC5)n4c3)cnc2o1
A) < 10 µM

Q) Subsequent entry: Nc1nc2cc(-c3ccc4ncc(C(=O)N(CCO)CCO)n4c3)ccc2o1
A) < 10 µM

Q) Subsequent entry: CCN1CCN(c2cnc3ccc(-c4ccc5oc(N)nc5c4)cc3n2)C(=O)C1
A) > 10 µM

Q) Subsequent entry: O=C(c1cnc2ccc(-c3cccc(NS(=O)(=O)c4ccccc4)c3)cn12)N1CCOCC1
A) < 10 µM

Q) Subsequent entry: COC(=O)N1CCC(n2ncc3c(N4CCOCC4)nc(-c4ccc5oc(N)nc5c4)nc32)CC1
A) > 10 µM

Q) Subsequent entry: Nc1nc2cc(-c3ccc4ncc(C(=O)N5CC(F)C5)n4c3)ccc2o1
A) < 0.1 µM

Q) Subsequent entry: COc1ncc(-c2ccc3ncc(C(=O)N4CCOCC4)n3c2)cc1NS(=O)(=O)c1ccc(F)cc1
A) < 0.1 µM

Q) Subsequent entry: Cc1c(-c2ccc3ncc(N4CC(N5CCOCC5)C4)nc3c2)ccc2oc(N)nc12
A) > 10 µM

Q) Subsequent entry: Nc1nc2cc(-c3ccc4ncc(N5CCN(C(=O)CN6CCCC6)CC5)nc4c3)ccc2o1
A) < 1 µM

Q) Subsequent entry: Nc1nc2cc(-c3ccc4oc(N)nc4c3)ccc2o1
A) < 0.1 µM

Q) Subsequent entry: Nc1nc2cc(-c3ccc4ncc(C(=O)N5CC(N6CC[C@H](O)C6)C5)n4c3)ccc2o1
A) < 1 µM

Q) Subsequent entry: C[C@H]1CN(c2cnc3ccc(-c4ccc5sc(N)nc5c4)cc3n2)CCN1
A) > 10 µM

Q) Subsequent entry: Nc1nc2cc(-c3ccc4ncc(C(=O)N5CCC5)n4c3)ccc2o1
A) < 0.1 µM

Q) Subsequent entry: Nc1nc2cc(-c3ccc4ncc(N5CC[C@H](O)C5)nc4c3)ccc2o1
A) < 1 µM

Q) Subsequent entry: Cc1c(-c2ccc3oc(N)nc3c2)ccc2ncc(N3CC(N4CCOCC4)C3)nc12
A) > 10 µM

----------
# Protocol details: PI 3-Kinase (human) HTRF assay, p110δ/p85α
# Assay type: biochemical
# Study conditions: read-out: PI3K γ IC50
pIC50: −log10 of the molar value.
Property measured: pIC50

A selection of reference data follows.
O=C(c1cnc2ccc(-c3ccc4c(Nc5ccccc5)nsc4c3)cn12)N1CCOCC1 :: < 5.00
C[C@H](N)C(=O)N1CCN(c2cnc3ccc(-c4ccc5oc(N)nc5c4)cc3n2)CC1 :: > 6.00
Nc1nc2cc(-c3ccc4nnc(C(=O)N5CCOCC5)n4c3)ccc2o1 :: < 5.00
NC(=O)[C@H]1CCCN1C(=O)C1CN(c2cnc3ccc(-c4ccc5oc(N)nc5c4)cc3n2)C1 :: > 5.00
CC1(C)CN(c2cnc3ccc(-c4ccc5oc(N)nc5c4)cc3n2)CCN1 :: > 5.00
Nc1nc2cc(-c3ccc4ncc(N5CCNCC5=O)nc4c3)ccc2o1 :: < 5.00
CC(C)(N)C(=O)N1CCN(c2cnc3ccc(-c4ccc5oc(N)nc5c4)cc3n2)CC1 :: > 6.00
CC(=O)n1nc(N)c2ccc(-c3ccc4oc(N)nc4c3)cc21 :: < 5.00

Q) Fill blank: measured pIC50 of the molecule Nc1nc2cc(-c3ccc4ncc(N5CCC(n6ccnc6)CC5)nc4c3)ccc2o1 is ____.
A) > 6.00

Q) Subsequent entry: CC(=O)Nc1cn2cc(-c3ccc4oc(N)nc4c3)ccc2n1
A) > 7.00

Q) Subsequent entry: C[C@@H]1CCCN1C(=O)c1cnc2ccc(-c3ccc4oc(N)nc4c3)cn12
A) > 5.00

Q) Subsequent entry: Nc1nc2cc(-c3ccn4ncc(-c5ccncc5)c4c3)ccc2o1
A) > 7.00

Q) Subsequent entry: Nc1nc2cc(-c3ccc4ncc(N5CC(n6ccnc6)C5)nc4c3)ccc2o1
A) > 5.00

Q) Subsequent entry: C[C@H]1CN(C2CN(C(=O)c3cnc4ccc(-c5ccc6oc(N)nc6c5)cn34)C2)CCN1C
A) > 6.00

Q) Subsequent entry: Nc1nc2cc(-c3ccc4ncc(N5CC(N6CC[C@H](O)C6)C5)nc4c3)ccc2o1
A) > 5.00
